Where these numbers come from: the supplement of paper PMC4466140

Molecular target: ScBbc1
Assay: SPOT peptide array binding signal intensity (averaged, normalized) (arbitrary units (background-subtracted, floor 0; scale differs between SH3 domains)); higher = stronger binding of the SH3 domain to the peptide
metric.name: SPOT peptide array binding signal intensity

- binder: "VATSTSPKLPPRGKQ"
  meas.value: 18.8
- binder: "TSFKGRPKPPKTLKH"
  meas.value: "≤ 0"
- binder: "AVPPPPPPPPLPESL"
  meas.value: "≤ 0"
- binder: "PPIPNAPLSPAPAVP"
  meas.value: "≤ 0"
- binder: "PIVPSSPAPPLPLSG"
  meas.value: "≤ 0"

Batch request: SPOT peptide array binding signal intensity per item, same order as input.
1. RNNRPVPPPPPMRTT
2. RTIRKLPLMSLSEYF

Solution:
[58, 5.25]
